These data points were gathered from patent US8993527B2.

Catalogue of compounds with associated IC50
Target: purified pig heart adenosine kinase (Sus scrofa, UniProt A0A5G2R0F5)
Construct: 0.1 μg of purified pig heart adenosine kinase
Sequence (A0A5G2R0F5 1-362): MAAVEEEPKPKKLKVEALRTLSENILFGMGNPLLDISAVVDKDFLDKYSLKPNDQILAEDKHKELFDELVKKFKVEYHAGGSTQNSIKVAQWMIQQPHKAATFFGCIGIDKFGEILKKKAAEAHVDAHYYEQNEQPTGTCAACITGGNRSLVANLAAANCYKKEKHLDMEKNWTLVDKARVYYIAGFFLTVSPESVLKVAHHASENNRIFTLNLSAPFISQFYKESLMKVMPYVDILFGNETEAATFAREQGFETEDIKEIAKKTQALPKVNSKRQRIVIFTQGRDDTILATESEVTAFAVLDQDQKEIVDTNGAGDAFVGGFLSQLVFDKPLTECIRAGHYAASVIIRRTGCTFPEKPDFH
Experiment: Adenosine kinase activity
Conditions: 0.5 μM [U14C] adenosine, 1 mM ATP, 20 minutes at 37° C.
Give just the number in µM; leave the unit off.

See these solved cases before continuing.
record.smiles	measured.metric	units.symbol	reported.value
C[C@H]1O[C@@H](n2c(S)nc(C(N)=O)c2N)[C@H](O)[C@@H]1O	IC50	µM	23
NC(=O)c1nc(S)n([C@@H]2O[C@H](CO)[C@@H](O)[C@H]2O)c1N	IC50	µM	8

Exercise: IC50 for NC[C@H]1O[C@@H](n2c(S)nc(C(N)=O)c2N)[C@H](O)[C@@H]1O ?
Solution: 17
